These data points were gathered from PubChem BioAssay (NCI).

# growth values compiled below
Tested on: 786-0 renal
assay_method_text: NCI-60 one-dose screen, 48 h (100 = growth as untreated, 0 = no growth, -100 = all killed)
experimental_conditions: 10 µM
This is part of a sample that, as a whole, favours compounds with a hit. Of some 83,000 tested, about 20% had one in any assay.
Give your result in % as a bare value.

>  <compound>
CCOC(=O)c1c(C(F)(F)F)n([O-])c2ccc(OC)cc2[n+]1=O

>  <test_target>
786-0 renal

>  <growth / %>
42.2

$$$$

[Q] Return the recorded growth value; entry: `CCOc1ccc(-n2cc(-c3ccc(N(C)C)cc3)[n+]3c2CCCCC3)cc1`
[A] 20.7

[Q] Please indicate growth recorded for `C[C@H](NC(=O)[C@@H]1CSSC[C@@H](NC(=O)Cc2nc3ccccc3cc2O)C(=O)NCC(=O)N1C)c1ccccc1`
[A] 114

[Q] Look up growth of `Nc1ncc(-c2ccc(C(F)(F)F)cc2)c(NC2CCCCCC2)n1` and report it.
[A] 51.3

[Q] Please report growth for the following compound: `CC1(C)CC(=O)c2c(nc3ccc(Cl)cc3c2-c2ccccc2)C1`
[A] 101

[Q] Quickly give me recorded growth for `CCN(CC)CCCOC(=O)Nc1ccccc1Cl`
[A] 98.9

[Q] Query growth for `COc1ccc(S(=O)(=O)Nc2ccc(OCc3nnc(-c4ccc(Cl)cc4)o3)c(F)c2)cc1`
[A] 67.8

[Q] # return recorded growth for entry CC1=CSC2=NC(c3ccc(Cl)c(Cl)c3)=CC(c3ccc(Cl)cc3)N12 (configuration not stated)
[A] 22.3

[Q] Return value of growth for input `O=C1c2cc(Cl)ccc2-c2c(O)cc(Cl)cc21` , no commentary.
[A] 103

[Q] For `CCOC(=O)C1=C(Nc2ccc(OC)cc2)C(N)=NC1=N` , write its growth.
[A] 59.3

[Q] Please report the measured growth for `COc1ccc(-c2nnc(N3CCN(C(=O)CN4CCN(c5ccc(Cl)cc5)CC4)CC3)nc2-c2ccc(OC)cc2)cc1`
[A] 70.8
